B1: TMEM175 (parent)
chain: ALLHQAETLQPSVWFGGREHVLMF

Variants of: B1
test_details: protein stability index of a GFP-peptide fusion (GPS, HEK-293T) (PSI 1-6); higher = more stable;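 also: lentivirally expressed fusions sorted by FACS into six bins by GFP to DsRed ratio, PSI derived from sequencing read proportions per bin multiplied by bin number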
condition: c terminus: a fixed tail appended
assay_endpoint: protein stability index
# output: bare number, no unit

Please review the following examples before continuing.
> print(dat)
   mutant.name  value.measured
1         Q10V            1.06
2          T8L            4.17
3          L9P            2.11
4          T8N            1.63
5         R18G            2.08

## Input Item `L3R` : provide protein stability index
## Output 1.62

## Input Item `W14H` : provide protein stability index
## Output 2.31

## Input Item `V13S` : provide protein stability index
## Output 2.73

## Input Item `M23V` : provide protein stability index
## Output 1.27
